Reported self-cleavage by item:
B1: CPEB3 Ribozyme (parent)
chain: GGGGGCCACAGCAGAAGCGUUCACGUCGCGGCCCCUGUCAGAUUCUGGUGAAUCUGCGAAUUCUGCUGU

Variants of: B1
Assay: self-cleavage, relative activity (ratio to wild type); higher = more cleavage; co-transcriptional
Answer with the value's number alone.

mutant_designation="C6A C45U" experimental_readout=self-cleavage meas_value=0.708
mutant_designation="A8C U64G" experimental_readout=self-cleavage meas_value=0.892

self-cleavage reported for this variant A15G G31C : 0.204

self-cleavage reported for this variant A16G G25C : 0.257

self-cleavage reported for this variant G3A A13G : 0.596

self-cleavage reported for this variant U49C U55A : 0.936

self-cleavage reported for this variant A15G U26G : 0.953

self-cleavage reported for this variant C35G U46C : 0.378

self-cleavage reported for this variant C39U G68C : 0.97

self-cleavage reported for this variant C45G U46A : 0.631

self-cleavage reported for this variant A16C U21A : 0.273
